The reported numbers originate from ChEMBL document CHEMBL5442219.

# measurement-target: 5-hydroxytryptamine receptor 2A (Homo sapiens)
# test-context: Compound concentration 10 µM
# Description: PDSP Primary Binding target: HTR2A - Compounds are tested at 10 uM concentration, plate are incubated at room temperature in the dark for 90 minutes. Reaction are stopped by vacuum filtration onto 0.3% polyethyleneimine soaked filter mats using Filtermate harvester. Scintilation cocktail is then melted onto microwave-dried filters on a hot plate and the radio activity is counted in Microbia counter.
observation-type: inhibition (%)
Response body: numeric value in %, unit text excluded.

Data request, read-out inhibition, for CCc1ccc(OCc2ccccc2C(=O)Nc2ccc3nc(C)cc(N)c3c2)cc1 83.4

Moving on to COc1ccnc(N2CCC3(CCCN(Cc4c[nH]c5ccccc45)C3=O)CC2)n1 7.53

Moving on to C[C@H](NC[C@H](O)CP(=O)(O)CC1CCCCC1)c1ccc(Cl)c(Cl)c1 -0.59

Moving on to CC1CCN(CC[C@H]2CCCN2S(=O)(=O)c2cccc(O)c2)CC1 28.8

Moving on to COc1ccccc1N1CCN(CCCCNC(=O)c2ccc3ccccc3c2)CC1 -1.42

Moving on to Cc1cc(C(=O)N2Cc3cnn(C)c3Nc3ccccc32)ccc1CNC(=O)N1CCC[C@H]1C(=S)N1CCCN(C)CC1 9.68

Moving on to FC(F)(F)c1c(N2CCC(c3ccccc3)CC2)ccn2c(CC3CC3)nnc12 44.4

Moving on to OC[C@H]1O[C@@H](n2cnc3c(NC4CCCC4)ncnc32)[C@H](O)[C@@H]1O -8.74

Moving on to CCCSc1nc(N[C@@H]2C[C@H]2c2ccc(F)c(F)c2)c2nnn([C@@H]3C[C@H](OCCO)[C@@H](O)[C@H]3O)c2n1 10.9

Moving on to COc1cccc([C@@H](C)NCCCc2ccccc2Cl)c1 91.1

Moving on to Cc1nc2sccn2c(=O)c1CCN1CCC(=C(c2ccc(F)cc2)c2ccc(F)cc2)CC1 91

Moving on to Oc1ccc2c3c1O[C@H]1c4[nH]c5c(c4C[C@@]4(O)[C@@H](C2)N(CC2CC2)CC[C@]314)C[C@@]1(O)[C@H]2Cc3ccc(O)c4c3[C@@]1(CCN2CC1CC1)[C@H]5O4 18.3

Moving on to CN1CC(=O)N=C1NC(=O)Nc1cccc(Cl)c1 1.19

Moving on to CCCn1c(=O)c2nc(C34CC5CC(CC3C5)C4)[nH]c2n(CCC)c1=O -7.63

Moving on to NC(=O)[C@@H]1CCCN1C(=O)[C@H](Cc1c[nH]cn1)NC(=O)[C@@H]1CCC(=O)N1 23.5

Moving on to O=C(c1cc2c(cc1F)OC(c1ccc(F)cc1)(c1ccc(Cl)cc1Cl)O2)N1CCOCC1 (centres undefined) 57.3

Moving on to Cc1nnn(-c2ccc(-c3ccc(C4(C(=O)O)CC4)cc3)cc2)c1NC(=O)O[C@H](C)c1ccccc1 2.49

Moving on to CC(C)Oc1ccccc1C(=O)Nc1ccccc1C(=O)Nc1cccc(S(=O)(=O)C(F)(F)F)c1 87.8

Moving on to NC[C@@H]1O[C@H](C23CC4CC(CC(C4)C2)C3)Cc2c1ccc(O)c2O 3.87
